FYI, the data here is from patent EP4631940A1.

Recorded IC50 values for a group of compounds are listed next.
System: AGS
Experimental Details: Cell proliferation experiment (CellTiter-Glo)
Assay type: cell-based
Conditions Used: read-out: IC50(nM) AGS
Measure Name: IC50 (nM)

{"Compound": "C#Cc1c(F)ccc2cc(O)cc(-c3ncc4c(N5CCCn6nc(C(=O)N(C)C)cc6C5)nc(OCC5(CN6CCC(COc7ccc(C(=O)N[C@H](C(=O)N8C[C@H](O)C[C@H]8C(=O)N[C@@H](C)c8ccc(-c9scnc9C)cc8)C(C)(C)C)cc7)CC6)CC5)nc4c3F)c12 [Compound 89]", "Measure Name": "IC50", "Endpoint Value": 193}
{"Compound": "C=C1CN2[C@H](COC(=O)N3CCN(c4cc([C@H](C(=O)N5C[C@H](O)C[C@H]5C(=O)N[C@@H](C)c5ccc(-c6scnc6C)cc5)C(C)C)on4)CC3)CC[C@@]2(COc2nc(N3CCC[C@@](C)(O)C3)c3cnc(-c4cc(O)cc5ccc(F)c(CC)c45)c(F)c3n2)C1 [Compound 110]", "Measure Name": "IC50", "Endpoint Value": 52}
{"Compound": "CCc1c(F)ccc2cc(O)cc(-c3ncc4c(N5CCC[C@@](C)(O)C5)nc(OCC5(CN6CCC(c7cc([C@H](C(=O)N8C[C@H](O)C[C@H]8C(=O)N[C@@H](C)c8ccc(-c9scnc9C)cc8)C(C)C)on7)CC6)CC5)nc4c3F)c12 [Compound 147]", "Measure Name": "IC50", "Endpoint Value": 16}
{"Compound": "C=C1CN2[C@H](COC(=O)N3CCC4(CC3)CC(C(=O)N[C@H](C(=O)N3C[C@H](O)C[C@H]3C(=O)N[C@@H](C)c3ccc(-c5scnc5C)cc3)C(C)(C)C)C4)CC[C@@]2(COc2nc(N3CCC[C@@](C)(O)C3)c3cnc(-c4cc(O)cc5ccc(F)c(CC)c45)c(F)c3n2)C1 [Compound 140]", "Measure Name": "IC50", "Endpoint Value": 28}
{"Compound": "CCc1c(F)ccc2cc(O)cc(-c3ncc4c(N5CCC[C@@](C)(O)C5)nc(OCC5(CN6CCC7(CC6)CN(Cc6cnc(-c8cn([C@H](C(=O)N9C[C@H](O)C[C@H]9C(=O)N[C@@H](C)c9ccc(-c%10scnc%10C)cc9)C(C)C)nn8)cn6)C7)CC5)nc4c3F)c12 [Compound 189]", "Measure Name": "IC50", "Endpoint Value": 2.9}
{"Compound": "CCc1c(F)ccc2cc(O)cc(-c3ncc4c(N5CCC[C@@](C)(O)C5)nc(OCC5(CN6CCC7(CC6)CC(c6cn([C@H](C(=O)N8C[C@H](O)C[C@H]8C(=O)N[C@@H](C)c8ccc(-c9scnc9C)cc8)C(C)C)nn6)C7)CC5)nc4c3F)c12 [Compound 73]", "Measure Name": "IC50", "Endpoint Value": 22}

###

System: H358
Experimental Details: Cell proliferation experiment (CellTiter-Glo)
Assay type: cell-based
Conditions Used: H358, KRAS mutation type G12C; 96 h incubation
Measure Name: IC50 (nM)

{"Given Smiles": "C#Cc1c(F)ccc2cc(O)cc(-c3ncc4c(N5CCCn6nc(C(=O)N(C)C)cc6C5)nc(OCC5(CN6CCC(COc7ccc(C(=O)N[C@H](C(=O)N8C[C@H](O)C[C@H]8C(=O)N[C@@H](C)c8ccc(-c9scnc9C)cc8)C(C)(C)C)cc7)CC6)CC5)nc4c3F)c12", "Endpoint Value": 635}
{"Given Smiles": "CCc1c(F)ccc2cc(O)cc(-c3ncc4c(N5CCC[C@@](C)(O)C5)nc(OCC5(CN6CCC7(CC6)CN(Cc6cnc(-c8cn([C@H](C(=O)N9C[C@H](O)C[C@H]9C(=O)N[C@@H](C)c9ccc(-c%10scnc%10C)cc9)C(C)C)nn8)cn6)C7)CC5)nc4c3F)c12", "Endpoint Value": 15}
{"Given Smiles": "CCc1c(F)ccc2cc(O)cc(-c3ncc4c(N5CCC[C@@](C)(O)C5)nc(OCC5(CN6CCC(Oc7cnc(-c8cn([C@H](C(=O)N9C[C@H](O)C[C@H]9C(=O)N[C@@H](CO)c9ccc(-c%10scnc%10C)cc9)C(C)C)nn8)cn7)CC6)CC5)nc4c3F)c12", "Endpoint Value": 5.7}
{"Given Smiles": "CCc1c(F)ccc2cc(O)cc(-c3ncc4c(N5CCC[C@@](C)(O)C5)nc(OCC5(CN6CCN(C7CN(c8cnc(-c9cn([C@H](C(=O)N%10C[C@H](O)C[C@H]%10C(=O)N[C@@H](C)c%10ccc(-c%11scnc%11C)cc%10)C(C)C)nn9)cn8)C7)CC6)CC5)nc4c3F)c12", "Endpoint Value": 12}
